meta.source: PubChem BioAssay (NCI)

- System: MDA-MB-231 breast
- method: NCI tumour cell line growth inhibition, 48 h; in the data active = GI50 below about 0.43 µM; inactive = the rest
Outcome codes: True (active), False (inactive)

[
  {
    "molecule": "CN(C)C/C=C/C(=O)Nc1ccc(C(=O)Nc2cccc(Nc3ncc(Cl)c(-c4c[nH]c5ccccc45)n3)c2)cc1",
    "study-system": "MDA-MB-231 breast",
    "assigned-class": "True"
  },
  {
    "molecule": "O=C(NNC1=NS(=O)(=O)c2ccccc2N1c1ccccc1)c1cnccn1",
    "study-system": "MDA-MB-231 breast",
    "assigned-class": "False"
  },
  {
    "molecule": "N#Cc1c(-c2ccccc2)nc(SCC(O)CN2CCOCC2)nc1N1CCOCC1 (configuration not stated)",
    "study-system": "MDA-MB-231 breast",
    "assigned-class": "False"
  },
  {
    "molecule": "Cc1ccc2c(-c3ccnc(Nc4cccc(C(F)(F)F)c4)n3)c(-c3ccccc3)nn2n1",
    "study-system": "MDA-MB-231 breast",
    "assigned-class": "False"
  },
  {
    "molecule": "C=CCc1cc(O)ccc1O",
    "study-system": "MDA-MB-231 breast",
    "assigned-class": "False"
  },
  {
    "molecule": "Fc1ccc(C2CC(c3cccc(Nc4ccncc4)c3)=NN2c2ccccc2)cc1 (configuration not stated)",
    "study-system": "MDA-MB-231 breast",
    "assigned-class": "False"
  },
  {
    "molecule": "c1ccc(C2=Nc3ccccc3N3CNN=C23)cc1",
    "study-system": "MDA-MB-231 breast",
    "assigned-class": "False"
  }
]
